Listing of recorded Papp by entry.
Experiment: passive permeability, PAMPA, ADME assay (AID 1508612)
Settings: pH 7.4, 30.0 min, 50.0 µM
Report the value in ×10⁻⁶ cm/s with no unit label.

Examples with their reported Papp follow.
# SMILES DATA, OBSERVED VALUE
data = [
    ("COc1ccc(-n2nc(C3CCN(C(=O)Cc4ccc(F)cc4)CC3)[nH]c2=O)cc1", 540),
    ("O=C(c1cccs1)c1nonc1C(=O)c1cccs1", 806),
    ("Cc1cccc(-c2[nH]c(C(C)(C)C)nc2-c2ccc3nccnc3c2)n1", 512),
]

Attention now turns to another entry.
Record `CCc1ccc(NC(=O)c2[nH]c(C)c(C(C)=O)c2C)cc1S(=O)(=O)Nc1ccc(C#N)cc1` . Reported Papp: 48.1

----------
Test: passive permeability, PAMPA, ADME assay (AID 1508612)
Details: pH 7.4, 30.0 min, 50.0 µM
PARAMETER MEASURED: Papp (×10⁻⁶ cm/s)
Report the value in ×10⁻⁶ cm/s with no unit label.

# COMPOUND, OBSERVED VALUE
measured = [
    ("O=C1Nc2ccc(Cl)cc2/C1=C\\c1cc(Cl)c(O)c(Cl)c1", 69.5),
    ("CCNC(=O)N1CCCN(c2ccc(C(=O)NCCc3ccc(Cl)cc3Cl)cc2NC(=O)c2cccc(Cl)c2)CC1", 202),
    ("Cc1nn(CCc2nc(-c3ccccc3)cs2)c2[nH]c(=O)cc(C(F)(F)F)c12", 426),
    ("CCOc1ccc(NC(=O)c2cccc(-n3cccc3)c2)cc1S(=O)(=O)N1CCOCC1", 80.4),
    ("CN(C)c1cccc(-c2c3c(=O)n(-c4ccccc4Cl)[nH]c3cc(=O)n2C)c1", 13.9),
]

Record `O=C(Cc1ccc(Cl)c(Cl)c1)Nc1ccc(S(=O)(=O)Nc2ccon2)cc1` . Reported Papp: 9.17

Record Oc1c(C(Nc2nccs2)c2ccc(C(F)(F)F)cc2)ccc2cccnc12 (configuration not stated) . Reported Papp: 41.6

Record `O=C(c1ccc(-c2ncc3cnc(-c4ccccc4)cn23)cc1)N1CCS(=O)(=O)CC1` . Reported Papp: 45.6

----------
Experiment: passive permeability, PAMPA, ADME assay (AID 1508612)
Settings: pH 7.4, 30.0 min, 50.0 µM
Listing of recorded Papp by entry.
Report the value in ×10⁻⁶ cm/s with no unit label.

# COMPOUND, PARAMETER MEASURED, OBSERVED VALUE
measured = [
    ("O=C(Nc1ccc(-c2nc3cc(NC(=O)c4ccccc4Cl)ccc3o2)cc1)c1ccccc1Cl", "Papp", 176),
    ("COC(=O)C1=C(C)NC(C)=C(C(=O)OCCCN2CCC(c3ccccc3)(c3ccccc3)CC2)C1c1cccc([N+](=O)[O-])c1 (stereo not given)", "Papp", 34.1),
    ("CC1(COc2ccc3c(c2)ncn3-c2ccc3cccc(N4CCC(N)CC4)c3n2)COC1", "Papp", 25.2),
    ("COc1ccc(C(=O)NC2CCCc3c2[nH]c2ccccc32)cc1OC (stereo not given)", "Papp", 38.1),
    ("CCN1CCN(c2ccc(Nc3ccc(-c4ccc(C(N)=O)cc4)n4ncnc34)cc2)CC1", "Papp", 747),
    ("COc1cccc(C(=O)Nc2nc(-c3nnn(-c4cc(C)ccc4C)c3C)ns2)c1", "Papp", 340),
    ("Cc1cc(N=Nc2ccc(S(=O)(=O)Nc3ccccn3)cc2)c(N)cc1O", "Papp", 29.4),
    ("COc1ccc(C2Nc3ccccc3C(=O)N2Cc2ccco2)cc1 (stereo not given)", "Papp", 799),
]

Record `O=[S+]([O-])(Nc1ccc(N2CCNCC2)cc1)c1ccc(NCc2ccc(Br)cc2O)cc1` . Reported Papp: 7.93

Record `CCc1ccc(NC(=O)c2[nH]c(C)c(C(C)=O)c2C)cc1[S+](=O)([O-])Nc1ccccc1C#N` . Reported Papp: 74.2

Record `Cc1ccc(-c2csc(NC(=O)c3ccncc3NS(=O)(=O)c3ccc(C)cc3)n2)cc1` . Reported Papp: 530

Record `COC(=O)C1=C(C)NC(C)=C(C(=O)O[C@@H]2CCCN(Cc3ccccc3)C2)[C@@H]1c1cccc([N+](=O)[O-])c1` . Reported Papp: 950

Record O=C(Nc1ccccc1)C1CC(=O)N(c2n[nH]c3cc(Br)ccc23)C1 (stereo not given) . Reported Papp: 1.1

----------
Assay: passive permeability, PAMPA, ADME assay (AID 1508612)
Conditions: pH 7.4, 30.0 min, 50.0 µM
Papp vs 300 ×10⁻⁶ cm/s: at or above is 1, below is -1.

# COMPOUND, CATEGORY LABEL
rows = [
    ("Cc1cccc(C(=O)N2CCc3cc(-c4nc(NC(=O)Cc5ccc6c(c5)OCO6)sc4C)ccc32)c1", -1),
    ("CCOc1ccccc1N1CC(c2nc3ccccc3n2CCOc2ccc(C(C)(C)C)cc2)CC1=O (centres undefined)", 1),
    ("CC1CCC(NC(=O)c2ccc3c(c2)N(Cc2ccccc2F)C(=O)c2ccccc2S3)CC1 (centres undefined)", -1),
]

# next compound below
Textbook exercise: given the entry `O=C(Nc1ccc(S(=O)(=O)Nc2nccs2)cc1)c1ccc2ccccc2c1` , state whether its Papp is greater than or equal to 300 ×10⁻⁶ cm/s.
-1

----------
Listing of recorded Papp by entry.
Experiment: passive permeability, PAMPA, ADME assay (AID 1508612)
Details: pH 7.4, 30.0 min, 50.0 µM

# COMPOUND, Papp
data = [
    ("CCCCC(C)/C=C(C)/C=C(\\C)C(=O)NC1=CC(O)(/C=C/C=C/C=C/C(=O)NC2=C(O)CCC2=O)C2OC2C1=O (configuration not stated)", "955 ×10⁻⁶ cm/s"),
    ("NC(=O)C1CCN(c2nnc(-c3ccc4c(c3)OCCCO4)s2)CC1", "83.8 ×10⁻⁶ cm/s"),
    ("COc1cc2nc(N3CCCC3)nc(NCCCCCN3CCCC3)c2cc1OC", "2.4 ×10⁻⁶ cm/s"),
    ("Nc1c(C(=O)N2CCCCC2)sc(=S)n1-c1ccccc1", "> 1000 ×10⁻⁶ cm/s"),
    ("N#Cc1cccc(-c2csc(N3CCC(C(N)=O)CC3)n2)c1", "450 ×10⁻⁶ cm/s"),
    ("CCN1CCN(c2ccc3cc(S(=O)(=O)N4CCOCC4)ccc3n2)CC1", "> 1000 ×10⁻⁶ cm/s"),
]

Record `CN(C)CCCN1c2ccc(O)cc2Sc2ccc(Cl)cc21` . Reported Papp: > 1000 ×10⁻⁶ cm/s

Record `Cc1cn(CCN2CCN(c3ccccc3-c3cc(C#N)cc(C(=O)NCCCN4CCCC4)c3)CC2)c2ccccc12` . Reported Papp: < 1 ×10⁻⁶ cm/s

Record `COc1cccc(CNc2ccc(S(=O)(=O)Nc3ccc(N4CCNCC4)cc3)cc2)c1O` . Reported Papp: > 1000 ×10⁻⁶ cm/s

Record `CC(C)NC(=O)c1nc(-c2ccc(Cl)nc2)c2cnccn12` . Reported Papp: 723 ×10⁻⁶ cm/s

Record `Fc1cc(Nc2nc(-c3ccncc3)nc3ccccc23)ccc1-n1cncn1` . Reported Papp: 171 ×10⁻⁶ cm/s

Record `COc1cccc(CNc2ccc(S(=O)(=O)Nc3cccc(N4CCNCC4)c3)cc2)c1O` . Reported Papp: 16 ×10⁻⁶ cm/s

----------
Experiment: passive permeability, PAMPA, ADME assay (AID 1508612)
Conditions: pH 7.4, 30.0 min, 50.0 µM
PARAMETER MEASURED: Papp (×10⁻⁶ cm/s)
Report the value in ×10⁻⁶ cm/s with no unit label.

Record `CCOC(=O)N1CCN(Cc2nc3c(c(=O)n(C)c(=O)n3C)n2Cc2ccc(F)cc2)CC1` . Reported Papp: 550

Record `CC(C)c1ccc(CC(=O)N2CCCc3ncc(C(=O)Nc4cccnc4)cc32)cc1` . Reported Papp: 734

Record `O=C(Nc1ccc(C(=O)N2CCCC2)cc1)c1ccccc1F` . Reported Papp: 139

Record `COc1cc(Cl)c(C)cc1NS(=O)(=O)c1c(C)nc2sccn2c1=O` . Reported Papp: 787

----------
Assay: passive permeability, PAMPA, ADME assay (AID 1508612)
Details: pH 7.4, 30.0 min, 50.0 µM
Listing of recorded Papp by entry.
Report the value in ×10⁻⁶ cm/s with no unit label.

Examples with their reported Papp follow.
# MOLECULE, UNIT ABBREV, Papp
records = [
    ("OCc1ccc(-c2ccc(-c3ccc(CO)s3)o2)s1", "×10⁻⁶ cm/s", 956),
    ("O=C(O)c1ccc(Nc2nc(-c3cc4ccccc4oc3=O)cs2)cc1O", "×10⁻⁶ cm/s", 8.62),
    ("CCOC(=O)N1CCN(Cc2nc3c(c(=O)n(C)c(=O)n3C)n2Cc2cccc(C)c2)CC1", "×10⁻⁶ cm/s", 477),
    ("Cc1ccc(-c2cc(C(=O)Nc3cccc(S(N)(=O)=O)c3)c3ccccc3n2)cc1C", "×10⁻⁶ cm/s", 11.8),
    ("CCN(c1ccccc1)S(=O)(=O)c1c(C)nc2scc(C)n2c1=O", "×10⁻⁶ cm/s", 615),
]

Record CC1CCc2ccc(F)cc2N1S(=O)(=O)c1cccs1 (stereo unspecified) . Reported Papp: 795

Record `N#Cc1cccc(S(=O)(=O)Nc2cnccc2C(=O)Nc2nc(-c3ccccc3)cs2)c1` . Reported Papp: 189

Record `NC(=O)c1ccc(-c2nc3c([nH]2)CN(C(=O)CN2CCOCC2)CC3)cc1` . Reported Papp: 2.6

Record `COc1ccc(-c2c(-c3cc(C(=O)O)ccn3)ncn2C)cc1` . Reported Papp: 3.06
